Test: Cmax in ICR mouse at 2 mg/kg, iv
Type: ADME, organism-based
Design: dose 2 mg/kg, route intravenous
Details: in vivo
Experimental Endpoint: Cmax (ng/mL)

In [3]: df
Out[3]:
                                        smi  experimental_endpoint  numeric_value
0  Cn1cc(Nc2nc(N)cc(-c3cccc(-n4ccc5cc(C6CC6)cc(F)c5c4=O)c3CO)n2)cn1                   Cmax           2950
1  Nc1cc(-c2cccc(-n3ccc4cc(C5CC5)cc(F)c4c3=O)c2CO)nc(Nc2cnn(C3CC3)c2)n1                   Cmax           2260

* * *

Test: AUC (0 to t) in ICR mouse at 10 mg/kg, po
Type: ADME, organism-based
Settings: in vivo
Experimental Endpoint: AUC(0-t) (ng·h/mL)

(P) Nc1cc(-c2cccc(-n3ccc4cc(C5CC5)cc(F)c4c3=O)c2CO)nc(Nc2cnn(C3CC3)c2)n1
(Q) Cn1cc(Nc2nc(N)cc(-c3cccc(-n4ccc5cc(C6CC6)cc(F)c5c4=O)c3CO)n2)cn1
Request: // which entry reports the smaller AUC(0-t), P or Q ? Mark your selection by writing its label.
Result: Q
(Q: 12700 ng·h/mL, P: 18700 ng·h/mL)

* * *

Molecular target: Tyrosine-protein kinase BTK (Homo sapiens)
Experiment: Inhibition of BTK (unknown origin) using FITC-labeled Srctide substrate and ATP by microfluidic mobility shift assay
Experimental Endpoint: IC50 (nM)

                                        smi  experimental_endpoint  numeric_value
0  CC(C)(C)c1ccc(C(=O)Nc2cccc(-c3ccnc(Nc4ccc5cc[nH]c5c4)n3)c2)cc1                   IC50             52

(a) COc1cc(Nc2nccc(-c3cccc(NC(=O)c4ccc(C(C)(C)C)cc4)c3C)n2)cc(OC)c1OC
(b) CC(C)(C)c1ccc(C(=O)Nc2cccc(-c3ccnc(Nc4ccc5cn[nH]c5c4)n3)c2)cc1
(c) Cc1c(NC(=O)c2ccc(C(C)(C)C)cc2)cccc1-c1ccnc(Nc2ccc3[nH]ncc3c2)n1
Request: Sort (3 compounds) by IC50: min first. Output the labels ranked as instructed.
Result: a, c, b

* * *

Assay: Oral bioavailability in ICR mouse at 10 mg/kg
Format: ADME, organism-based
Details: in vivo
Experimental Endpoint: bioavailability (%)

(I) Cn1cc(Nc2nc(N)cc(-c3cccc(-n4ccc5cc(C6CC6)cc(F)c5c4=O)c3CO)n2)cn1
(II) Nc1cc(-c2cccc(-n3ccc4cc(C5CC5)cc(F)c4c3=O)c2CO)nc(Nc2cnn(C3CC3)c2)n1
Request: Param pair: I , II . Output: the one whose bioavailability is numerically greater. Mark your selection by writing its label.
Result: II

* * *

Assay: Cmax in ICR mouse at 10 mg/kg, po
Assay type: ADME, organism-based
Set-up: dose 10 mg/kg, route oral
Conditions: in vivo
Experimental Endpoint: Cmax (ng/mL)

>>> print(df.to_string())
                                        smi  experimental_endpoint  quantity_unit  numeric_value
0  Cn1cc(Nc2nc(N)cc(-c3cccc(-n4ccc5cc(C6CC6)cc(F)c5c4=O)c3CO)n2)cn1                   Cmax          ng/mL           4540
1  Nc1cc(-c2cccc(-n3ccc4cc(C5CC5)cc(F)c4c3=O)c2CO)nc(Nc2cnn(C3CC3)c2)n1                   Cmax          ng/mL           5940

* * *

Test: Tmax in ICR mouse at 2 mg/kg, iv
Assay type: ADME, organism-based
Settings: in vivo
Experimental Endpoint: Tmax (min)

                                        smi  experimental_endpoint  numeric_value
0  Nc1cc(-c2cccc(-n3ccc4cc(C5CC5)cc(F)c4c3=O)c2CO)nc(Nc2cnn(C3CC3)c2)n1                   Tmax           4.98
1  Cn1cc(Nc2nc(N)cc(-c3cccc(-n4ccc5cc(C6CC6)cc(F)c5c4=O)c3CO)n2)cn1                   Tmax           4.98

* * *

Biological target: Tyrosine-protein kinase BTK (Homo sapiens, UniProt Q06187)
Sequence (Q06187 whole entry): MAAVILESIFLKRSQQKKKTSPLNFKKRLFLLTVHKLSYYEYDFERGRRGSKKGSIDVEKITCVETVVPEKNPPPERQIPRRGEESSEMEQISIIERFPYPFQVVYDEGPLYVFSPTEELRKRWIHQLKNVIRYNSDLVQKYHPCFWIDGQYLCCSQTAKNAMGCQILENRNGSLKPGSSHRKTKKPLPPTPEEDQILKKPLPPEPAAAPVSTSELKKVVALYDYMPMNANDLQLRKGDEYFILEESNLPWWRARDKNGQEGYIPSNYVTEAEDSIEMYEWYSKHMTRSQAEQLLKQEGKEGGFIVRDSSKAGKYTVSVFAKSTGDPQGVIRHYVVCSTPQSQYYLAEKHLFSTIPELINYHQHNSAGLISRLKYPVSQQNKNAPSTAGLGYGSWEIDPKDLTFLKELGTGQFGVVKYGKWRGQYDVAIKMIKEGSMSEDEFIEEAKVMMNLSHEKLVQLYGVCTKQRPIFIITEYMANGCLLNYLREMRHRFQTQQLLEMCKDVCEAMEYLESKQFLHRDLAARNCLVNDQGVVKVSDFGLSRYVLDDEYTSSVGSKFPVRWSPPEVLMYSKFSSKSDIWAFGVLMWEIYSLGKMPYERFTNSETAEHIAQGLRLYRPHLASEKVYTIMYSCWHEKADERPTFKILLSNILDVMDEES
Experiment: Inhibition of N-terminal DYKDDDDK tagged and biotinylated BTK activated form (unknown origin) using FITC-labeled Srctide substrate and ATP by microfluidic mobility shift assay
pIC50: −log10 of the molar value.
Experimental Endpoint: pIC50

// worked examples, pIC50 included
In [3]: df
Out[3]:
                                        smi  numeric_value
0  Nc1cc(-c2cccc(-n3ccc4cc(C5CC5)cc(F)c4c3=O)c2CO)nc(Nc2cnn(C3CC3)c2)n1           8.55
1  Nc1cc(-c2cccc(-n3ccc4cc(C5CC5)cc(F)c4c3=O)c2CO)nc(Nc2cn[nH]c2)n1           8.09
2  Cn1cc(Nc2nc(N)cc(-c3cccc(-n4ccc5cc(C6CC6)cc(F)c5c4=O)c3CO)n2)cn1           8.43
3  Nc1cc(-c2cccc(-n3ccc4cc(C5CC5)cc(F)c4c3=O)c2CO)nc(Nc2ccc(N3CCOCC3)cc2)n1           7.89
4  CC(C)n1cc(Nc2nc(N)cc(-c3cccc(-n4ccc5cc(C6CC6)cc(F)c5c4=O)c3CO)n2)cn1           8.59
5  CC(=O)c1cc(Nc2nc(N)cc(-c3cccc(-n4ccc5cc(C6CC6)cc(F)c5c4=O)c3CO)n2)cn1C           8.23

(1) COc1ccc(Nc2nc(N)cc(-c3cccc(-n4ccc5cc(C6CC6)cc(F)c5c4=O)c3CO)n2)cc1
(2) Cn1ccc(Nc2nc(N)cc(-c3cccc(-n4ccc5cc(C6CC6)cc(F)c5c4=O)c3CO)n2)n1
(3) Cn1cc(Nc2nc(N)cc(-c3cccc(-n4ccc5cc(C6CC6)cc(F)c5c4=O)c3CO)n2)cc1C#N
Request: Sort (3 compounds) by pIC50: min first. Output the labels ranked as instructed.
Result: 2, 1, 3
(2: 6.61, 1: 7.41, 3: 7.69)

* * *

Assay: AUC (0 to infinity) in ICR mouse at 10 mg/kg, po
Type: ADME, organism-based
Design: dose 10 mg/kg, time infinity, route oral
Details: in vivo
Experimental Endpoint: AUC(0-inf) (ng·h/mL)

(a) Cn1cc(Nc2nc(N)cc(-c3cccc(-n4ccc5cc(C6CC6)cc(F)c5c4=O)c3CO)n2)cn1
(b) Nc1cc(-c2cccc(-n3ccc4cc(C5CC5)cc(F)c4c3=O)c2CO)nc(Nc2cnn(C3CC3)c2)n1
Request: Param pair: a , b . Output: the one whose AUC(0-inf) is numerically greater. Mark your selection by writing its label.
Result: b
(b: 19100 ng·h/mL, a: 12800 ng·h/mL)

* * *

Target: Tyrosine-protein kinase BTK (Homo sapiens, UniProt Q06187)
Assay: Inhibition of N-terminal DYKDDDDK tagged and biotinylated BTK activated form (unknown origin) using FITC-labeled Srctide substrate and ATP by microfluidic mobility shift assay
pIC50: −log10 of the molar value.
Experimental Endpoint: pIC50

// worked examples, pIC50 included
                                        smi                               test_system  numeric_value
0  Nc1cc(-c2cccc(-n3ccc4cc(C5CC5)cc(F)c4c3=O)c2CO)nc(Nc2cnn(CC(F)F)c2)n1  Tyrosine-protein kinase BTK (Homo sapiens, UniProt Q06187)           8.48
1  Cn1ccc(Nc2nc(N)cc(-c3cccc(-n4ccc5cc(C6CC6)cc(F)c5c4=O)c3CO)n2)c1  Tyrosine-protein kinase BTK (Homo sapiens, UniProt Q06187)           7.21
2  CCn1cc(Nc2nc(N)cc(-c3cccc(-n4ccc5cc(C6CC6)cc(F)c5c4=O)c3CO)n2)cn1  Tyrosine-protein kinase BTK (Homo sapiens, UniProt Q06187)           8.00

(I) Nc1cc(-c2cccc(-n3ccc4cc(C5CC5)cc(F)c4c3=O)c2CO)nc(Nc2cnn(CC3CC3)c2)n1
(II) Nc1cc(-c2cccc(-n3ccc4cc(C5CC5)cc(F)c4c3=O)c2CO)nc(Nc2cnn(C3(CO)CC3)c2)n1
Request: Param pair: I , II . Output: the one whose pIC50 is numerically greater. Mark your selection by writing its label.
Result: I
(I: 8.47, II: 7.92)

(1) CC(C)(C)n1cc(Nc2nc(N)cc(-c3cccc(-n4ccc5cc(C6CC6)cc(F)c5c4=O)c3CO)n2)cn1
(2) CN1CCN(c2ccc(Nc3nc(N)cc(-c4cccc(-n5ccc6cc(C7CC7)cc(F)c6c5=O)c4CO)n3)cc2)CC1
Request: Param pair: 1 , 2 . Output: the one whose pIC50 is numerically greater. Mark your selection by writing its label.
Result: 2
